Molecular target: huR4
Assay: Alphascreen inhibition; FGF21/BK+R4

BINDER: CLSDQFTCRSTNICLPLQWVCDGDDDCEDNSDEEDCSAPASEPPGSL (designed binder) [R1c_M31]
SCALE_UNIT: µM
IC50: 5
